# Test system: relapsed AML cells
# measurement description: Drug sensitivity assay, 1,536-well, 3-day culture with individual approved drugs at 10 μM, viability by alamarBlue
# Assay type: cell-based, human
# assay context: number of relapsed AML cases out of 18 tested with >70% cell death; 10 μM, 3-day culture
Structures can show the parent of a compound that is named as a salt.
metric: #Cases >70% cell death
// response body must contain only the number

Solved entries (count: 5):
CN(C)/N=N/c1[nH]cnc1C(N)=O ... 14
Cn1cnc([N+](=O)[O-])c1Sc1ncnc2nc[nH]c12 ... 10
CC[n+]1c(-c2ccccc2)c2cc(N)ccc2c2ccc(N)cc21 [HOMIDIUM BROMIDE] ... 1
CC(C)(C)c1[nH]cnc1/C=c1\[nH]c(=O)/c(=C/c2ccccc2)[nH]c1=O ... 12
COc1cccc([C@@H](C)NCCCc2ccccc2Cl)c1 [TECALCET HYDROCHLORIDE] ... 1

What value of measured #Cases >70% cell death is listed for C=C1C[C@H]2[C@@H]3C=C(C)C4=CC(=O)CC[C@]4(C)[C@H]3CC[C@]2(C)[C@@]1(OC(C)=O)C(C)=O [MELENGESTROL ACETATE] ?
2

What value of measured #Cases >70% cell death is listed for `N#C[C@@H]1CCCN1C(=O)CNC12CC3CC(CC(O)(C3)C1)C2` ?
1

---

# Tested on: relapsed AML cells
# measurement description: Drug sensitivity assay, 1,536-well, 3-day culture with individual approved drugs at 10 μM, viability by alamarBlue
# Assay type: cell-based, human
# assay context: number of relapsed AML cases out of 18 tested with >70% cell death; 10 μM, 3-day culture
Where a name gives a salt, the structure may show the parent alone.
Classify: y when #Cases >70% cell death is strictly less than 2; n when #Cases >70% cell death is not.

# example entries with known answers
CCCCC(CC)CNC(=N)NC(=N)NCCCCCCNC(=N)NC(=N)NCC(CC)CCCC (stereo not shown) ... n
CN(Cc1cc(Br)cc(Br)c1N)C1CCCCC1 ... y
CCN1CCN(Cc2ccc(-c3cc4c(N[C@H](C)c5ccccc5)ncnc4[nH]3)cc2)CC1 ... n
COc1ccc(C2CNC(=O)C2)cc1OC1CCCC1 (stereo not shown) ... y
CC[C@@H](C(=O)O)[C@@H]1O[C@@H]([C@@H](C)[C@H](O)[C@H](C)C(=O)[C@H](CC)[C@H]2O[C@]3(C=C[C@@H](O)[C@]4(CC[C@@](C)([C@H]5CC[C@](O)(CC)[C@H](C)O5)O4)O3)[C@H](C)C[C@@H]2C)[C@@H](C)C[C@@H]1C ... n

Is #Cases >70% cell death strictly under 2 for the entry CCCOc1cc(N)ccc1C(=O)OCCN(CC)CC [PROPOXYCAINE HYDROCHLORIDE] ?
y

Is #Cases >70% cell death strictly under 2 for the entry `N#CC[C@H](C1CCCC1)n1cc(-c2ncnc3[nH]ccc23)cn1` ?
n

Is #Cases >70% cell death strictly under 2 for the entry C[n+]1cc2c3c(ccc2c2ccc4cc5c(cc4c21)OCO5)OCO3 [SANGUINARIUM CHLORIDE] ?
n

---

# Tested on: relapsed AML cells
# measurement description: Drug sensitivity assay, 1,536-well, 3-day culture with individual approved drugs at 10 μM, viability by alamarBlue
# Type: cell-based, human
# assay context: number of relapsed AML cases out of 18 tested with >70% cell death; 10 μM, 3-day culture
Where a name gives a salt, the structure may show the parent alone.
metric: #Cases >70% cell death
// response body must contain only the number

Solved entries (count: 5):
COc1cc([C@@H]2c3cc4c(cc3[C@@H](O[C@@H]3O[C@@H]5CO[C@@H](C)O[C@H]5[C@H](O)[C@H]3O)[C@H]3COC(=O)[C@H]23)OCO4)cc(OC)c1O [ETOPOSIDE] ... 5
CC(C)(C)c1nc(-c2cccc(NS(=O)(=O)c3c(F)cccc3F)c2F)c(-c2ccnc(N)n2)s1 ... 4
COc1ccc(C[C@H](N)C(=O)N[C@H]2[C@@H](O)[C@H](n3cnc4c(N(C)C)ncnc43)O[C@@H]2CO)cc1 ... 18
CC(C)(C)NCC(O)c1ccc(O)c(CO)c1 (stereo not drawn) ... 1
Nc1ccc2cc3ccc(N)cc3nc2c1 [PROFLAVINE HEMISULFATE] ... 3

Item: CCOC(=O)C1=C(COCCN)NC(C)=C(C(=O)OC)C1c1ccccc1Cl (stereo not drawn) Test system: relapsed AML cells Read-out: #Cases >70% cell death Value: ?
14

Item: Clc1ccc(CCC(Cn2ccnc2)Sc2c(Cl)cccc2Cl)cc1 (stereo not drawn) Test system: relapsed AML cells Read-out: #Cases >70% cell death Value: ?
1

Item: `OCCN(CCO)c1nc(N2CCCCC2)c2nc(N(CCO)CCO)nc(N3CCCCC3)c2n1` Test system: relapsed AML cells Read-out: #Cases >70% cell death Value: ?
2

Item: c1ccc(-c2ccc(C(c3ccccc3)n3ccnc3)cc2)cc1 (stereo not drawn) Test system: relapsed AML cells Read-out: #Cases >70% cell death Value: ?
1

Item: `COc1ccc2c(c1)[nH]c1c(C)nccc12` Test system: relapsed AML cells Read-out: #Cases >70% cell death Value: ?
3

Item: `Cc1cc(Nc2nc(N[C@@H](C)c3ncc(F)cn3)ncc2Cl)[nH]n1` Test system: relapsed AML cells Read-out: #Cases >70% cell death Value: ?
12

Item: `CO[C@H]1C[C@H](O[C@H]2[C@H](C)O[C@@H](O[C@@H]3/C(C)=C/C[C@@H]4C[C@@H](C[C@]5(C=C[C@H](C)[C@@H](C6CCCCC6)O5)O4)OC(=O)[C@@H]4C=C(C)[C@@H](O)[C@H]5OC/C(=C\C=C\[C@@H]3C)[C@]54O)C[C@@H]2OC)O[C@@H](C)[C@@H]1O` Test system: relapsed AML cells Read-out: #Cases >70% cell death Value: ?
18

Item: `S=c1nc[nH]c2nc[nH]c12` Test system: relapsed AML cells Read-out: #Cases >70% cell death Value: ?
10

Item: CC(=O)N1CCN(c2ccc(OCC3COC(Cn4ccnc4)(c4ccc(Cl)cc4Cl)O3)cc2)CC1 (stereo not drawn) Test system: relapsed AML cells Read-out: #Cases >70% cell death Value: ?
5

Item: CC(=O)CC(c1ccc([N+](=O)[O-])cc1)c1c(O)c2ccccc2oc1=O (stereo not drawn) Test system: relapsed AML cells Read-out: #Cases >70% cell death Value: ?
4

Item: `Cn1c(=O)c2c(ncn2CC2OCCO2)n(C)c1=O` Test system: relapsed AML cells Read-out: #Cases >70% cell death Value: ?
1

Item: COC(=O)C1=C(C)NC(C)=C(C(=O)OCCN2CCN(C(c3ccccc3)c3ccccc3)CC2)C1c1cccc([N+](=O)[O-])c1 (stereo not drawn) Test system: relapsed AML cells Read-out: #Cases >70% cell death Value: ?
5

Item: `CCc1nn(CCCN2CCN(c3cccc(Cl)c3)CC2)c(=O)n1CCOc1ccccc1` Test system: relapsed AML cells Read-out: #Cases >70% cell death Value: ?
1

Item: C[C@]12CC[C@@H]3c4ccc(O)cc4CC[C@H]3[C@@H]1CC[C@@H]2OC(=O)CCC1CCCC1 [ESTRADIOL CYPIONATE] Test system: relapsed AML cells Read-out: #Cases >70% cell death Value: ?
2

Item: `CN(C)C(=O)n1cc(C(=O)c2ccn3c2CS[C@@H]3c2cccnc2)c2ccc(-c3ccc(F)cc3)cc21` Test system: relapsed AML cells Read-out: #Cases >70% cell death Value: ?
9

Item: CC1=C(/C=C/C(C)=C/C=C/C(C)=C/C(=O)Nc2ccc(O)cc2)C(C)(C)CCC1 [FENRETINIDE] Test system: relapsed AML cells Read-out: #Cases >70% cell death Value: ?
9

Item: `OCCN1CCN(CCCN2c3ccccc3Sc3ccc(Cl)cc32)CC1` Test system: relapsed AML cells Read-out: #Cases >70% cell death Value: ?
2

Item: Cc1ccc(C(=O)N(CCCN)[C@@H](c2nc3cc(Cl)ccc3c(=O)n2Cc2ccccc2)C(C)C)cc1 [ISPINESIB MESYLATE] Test system: relapsed AML cells Read-out: #Cases >70% cell death Value: ?
2

Item: `Cc1cc(C#N)cc(C)c1Oc1nc(Nc2ccc(C#N)cc2)nc(N)c1Br` Test system: relapsed AML cells Read-out: #Cases >70% cell death Value: ?
1

---

Each entry below carries its recorded #Cases >70% cell death.
# Tested on: relapsed AML cells
# measurement description: Drug sensitivity assay, 1,536-well, 3-day culture with individual approved drugs at 10 μM, viability by alamarBlue
# Format: cell-based, human
# assay context: number of relapsed AML cases out of 18 tested with >70% cell death; 10 μM, 3-day culture
// response body must contain only the number

Solved entries (count: 3):
COc1cc([C@@H]2c3cc4c(cc3[C@H](O)[C@H]3COC(=O)[C@H]23)OCO4)cc(OC)c1OC ... 13
CCC(C)(C)c1ccc(CC(C)CN2C[C@@H](C)O[C@@H](C)C2)cc1 (stereo partly shown) ... 9
CN(C)C(=S)SSC(=S)N(C)C ... 4

What value of measured #Cases >70% cell death is listed for `CC(=O)OC[C@H]1O[C@@H]([S-])[C@H](OC(C)=O)[C@@H](OC(C)=O)[C@@H]1OC(C)=O.CCP(CC)CC.[Au+]` ?
17

What value of measured #Cases >70% cell death is listed for `Nc1nc(Cl)nc2c1ncn2[C@@H]1O[C@H](CO)[C@@H](O)[C@@H]1F` ?
18

What value of measured #Cases >70% cell death is listed for COc1cc([C@@H]2c3cc4c(cc3[C@@H](O[C@@H]3O[C@@H]5CO[C@@H](c6cccs6)O[C@H]5[C@H](O)[C@H]3O)[C@H]3COC(=O)[C@H]23)OCO4)cc(OC)c1O [TENIPOSIDE] ?
10

What value of measured #Cases >70% cell death is listed for `O=C(O)c1ccccc1C(=O)Nc1ccc(S(=O)(=O)Nc2nccs2)cc1` ?
1

What value of measured #Cases >70% cell death is listed for `O=C1Cc2cc(CCN3CCN(c4nsc5ccccc45)CC3)c(Cl)cc2N1` ?
3

Entry source: patent US20210405025A1
